Test system: MHH-CALL-2 (B-Lymphoblastic Leukemia);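 further: after 72 h of two-drug dosing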
TEST DETAILS: Bliss excess, mean over the matrix (fraction); higher = more synergy
PROPERTY: Bliss excess
Give bare numbers.

The examples below pair each entry with its known result.
1. C[C@@H](c1ccc2nccn2c1)n1nnc2ncc(-c3cnn(C)c3)nc21 [Savolitinib] + CC1(C)CCC(CN2CCN(c3ccc(C(=O)NS(=O)(=O)c4ccc(NCC5CCOCC5)c([N+](=O)[O-])c4)c(Oc4cnc5[nH]ccc5c4)c3)CC2)=C(c2ccc(Cl)cc2)C1 [Venetoclax] (first compound max 1 µM, 7x7, partner max 1 µM) : -0.0471
2. CC(=O)c1c(C)c2cnc(Nc3ccc(N4CCNCC4)cn3)nc2n(C2CCCC2)c1=O [Palbociclib] + CN(CC[C@H](CSC1=CC=CC=C1)NC2=C(C=C(C=C2)S(=O)(=O)NC(=O)C3=CC=C(C=C3)N4CCC(CC4)[C@H](C5=CC=CC=C5C6=CC=C(C=C6)Cl)O)S(=O)(=O)C(F)(F)F)CCO [AZD4320] (first compound max 10 µM, 7x7, partner max 1 µM) : -0.0428

Return reported Bliss excess; argument: Cn1cnc2c(F)c(Nc3ccc(Br)cc3Cl)c(C(=O)NOCCO)cc21 [Selumetinib] + CC(C)n1c(=O)n(C)c2cnc3cc(F)c(-c4ccc(OCCCN5CCCCC5)nc4)cc3c21 [AZD1390] (first compound max 10 µM, 7x7, partner max 0.3 µM)
0.0042
